system: MMP13 in SW1353 cells; test: OSM/IL-1β signaling assay (MMP13 levels in SW1353 cells); format: cell-based; settings: Homo sapiens; SW1353 cells, OSM and IL-1β triggered, MMP13 levels 48 hours after triggering; read-out: MMP13 EC50;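 also: secreted MMP13 captured by antibody, activated with APMA and its activity read by fluorescence, inhibition scaled between vehicle-treated triggered wells (0%) and untriggered wells (100%)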
assay_endpoint: EC50

[
  {
    "molecule": "O=C(Nc1nc2cccc(-c3ccc(CN4CCC(F)(F)CC4)cc3)n2n1)C1CC1",
    "target": "MMP13 in SW1353 cells",
    "measurement": "1 to 500 nM"
  },
  {
    "molecule": "CC1(C)CCCN(C(=O)c2ccc(-c3cccc4nc(NC(=O)C5CC5)nn34)cc2)C1",
    "target": "MMP13 in SW1353 cells",
    "measurement": "1 to 500 nM"
  },
  {
    "molecule": "O=C(NCCc1cccnc1)c1ccc(-c2cccc3nc(NC(=O)C4CC4)nn23)cc1",
    "target": "MMP13 in SW1353 cells",
    "measurement": "> 1000 nM"
  },
  {
    "molecule": "O=C(Nc1nc2cccc(-c3ccc(CC(=O)N4CC(F)(F)C4)cc3)n2n1)C1CC1",
    "target": "MMP13 in SW1353 cells",
    "measurement": "> 1000 nM"
  },
  {
    "molecule": "O=C(Nc1nc2cccc(-c3ccc(Oc4ccccc4)cc3)n2n1)C1CC1",
    "target": "MMP13 in SW1353 cells",
    "measurement": "> 1000 nM"
  },
  {
    "molecule": "O=C(N[C@H]1CCN(Cc2ccccc2)C1)c1ccc(-c2cccc3nc(NC(=O)C4CC4)nn23)cc1",
    "target": "MMP13 in SW1353 cells",
    "measurement": "> 1000 nM"
  },
  {
    "molecule": "O=C(c1ccccc1)c1ccc(-c2cccc3nc(NC(=O)C4CC4)nn23)cc1",
    "target": "MMP13 in SW1353 cells",
    "measurement": "> 1000 nM"
  }
]

Let's switch to this molecule now.
Ask: Quick one: EC50 of O=C(Nc1nc2cccc(-c3ccc(C(=O)N4CCCC(C(F)(F)F)C4)cc3)n2n1)C1CC1 (centres unmarked) ?
Reply: > 1000 nM

###

experiment: Microsomal stability, human liver microsomes; assay type: in vitro ADME; details: percentage of compound remaining after 60 minutes, 3 μM compound
assay_endpoint: Microsomal Stability Human (%)

Guide cases for Microsomal Stability Human (%), answers given:
[
  {
    "molecule": "O=C(Nc1nc2cccc(-c3ccc(OCc4ccccn4)cc3)n2n1)C1CC1 [Compound 37]",
    "measurement": "*** (*** 51-75)"
  },
  {
    "molecule": "O=C(Nc1nc2cccc(-c3ccc(CC(=O)N4CCCCC4)cc3)n2n1)C1CC1 [Compound 266]",
    "measurement": "* (* 0-25)"
  },
  {
    "molecule": "CN(C(=O)c1ccc(-c2cccc3nc(NC(=O)C4CC4)nn23)cc1)c1ccccc1 [Compound 30]",
    "measurement": "* (* 0-25)"
  },
  {
    "molecule": "O=C(Nc1nc2cccc(-c3ccc(NCc4ccccc4)cc3)n2n1)C1CC1 [Compound 72]",
    "measurement": "* (* 0-25)"
  },
  {
    "molecule": "O=C(Nc1nc2cccc(-c3ccc4c(ccn4Cc4ccccc4)c3)n2n1)C1CC1 [Compound 121]",
    "measurement": "* (* 0-25)"
  },
  {
    "molecule": "O=C(NCc1cccc(F)c1)c1ccc(-c2cccc3nc(NC(=O)C4CC4)nn23)cc1 [Compound 29]",
    "measurement": "*** (*** 51-75)"
  }
]

Let's switch to this molecule now.
Ask: Quick one: Microsomal Stability Human (%) of O=C(Nc1nc2cccc(-c3ccc(C(=O)N4CCC(C(=O)c5ccccc5)CC4)cc3)n2n1)C1CC1 [Compound 74] ?
Reply: * (* 0-25)
